Biological target: T1, Ab-1
T1 construct: also called anti-CD28 scFv harbored in Ab-1
Assay: competition ELISA, peptide titrated vs 1 nM Ab-1 binding plate-bound CD28
No end group written: not given here.
testReadout: pIC50
pIC50 is defined as minus the log10 of a concentration measured in mol/L.

Problem: State the recorded pIC50 for this entry: NDWCPRDLWVHCFA (cysteine pairing not given here; also: biotinylated, site not given here) [Peptide-4]
Result: 5.30

Problem: State the recorded pIC50 for this entry: KDWCPRDLWVHCFA (cysteine pairing not given here; also: biotinylated, site not given here) [Peptide-12]
Result: 6.72

Problem: State the recorded pIC50 for this entry: MDWCPRDLWVHCFA (cysteine pairing not given here; also: biotinylated, site not given here) [Peptide-1]
Result: 7.22

Problem: State the recorded pIC50 for this entry: FDWCPRDLWVHCFA (cysteine pairing not given here; also: biotinylated, site not given here) [Peptide-13]
Result: 6.11

Problem: State the recorded pIC50 for this entry: VDWCPRDLWVHCFA (cysteine pairing not given here; also: biotinylated, site not given here) [Peptide-19]
Result: 5.35
